SYSTEM_NAME: MAGL (Mus musculus, UniProt O35678)
MEASUREMENT_NOTES: In vitro competitive activity-based protein profiling (FP-Rh), mouse MAGL
Format: biochemical
Set-up: from tissue; host or cells: mouse brain membrane fraction
REPORTED_CONDITIONS: Table 2, mouse proteome, 30 min preincubation at 37° C.
MEASUREMENT_NAME: IC50

Answered examples (2):
[[record]]
test_smiles = "Cc1c(CN2CCN(C(=O)ON3C(=O)CCC3=O)CC2)cccc1N1CCCCC1"
measurement = "< 100 nM"

[[record]]
test_smiles = "O=C(ON1C(=O)CCC1=O)N1CCN(Cc2ccc(Br)cc2N2CCCCC2)CC1"
measurement = "< 100 nM"


## Input Fill in IC50 for record Cc1nc2ccc(Cl)cn2c1CN1CCN(C(=O)ON2C(=O)CCC2=O)CC1
## Output 1000 to 10000 nM

## Input Annotate the compound O=C(ON1C(=O)CCC1=O)N1CCN(Cc2ccc(F)c(N3CCCC3)c2)CC1 with its measured IC50.
## Output < 100 nM

## Input Please list IC50 recorded for the compound O=C(ON1C(=O)CCC1=O)N1CCN(Cc2ccc(N3CCCC3)cc2Cl)CC1
## Output < 100 nM

## Input Recall and state the measured IC50 for O=C1COc2ccc(CN3CCN(C(=O)ON4C(=O)CCC4=O)CC3)cc2N1 .
## Output 1000 to 10000 nM

## Input Please give measured IC50 of the following entry: O=C(ON1C(=O)CCC1=O)N1CCN(Cc2ccc(Br)cc2N2CCCC2)CC1
## Output < 100 nM

###

SYSTEM_NAME: MAGL (Mus musculus)
Sequence (O35678 1-303): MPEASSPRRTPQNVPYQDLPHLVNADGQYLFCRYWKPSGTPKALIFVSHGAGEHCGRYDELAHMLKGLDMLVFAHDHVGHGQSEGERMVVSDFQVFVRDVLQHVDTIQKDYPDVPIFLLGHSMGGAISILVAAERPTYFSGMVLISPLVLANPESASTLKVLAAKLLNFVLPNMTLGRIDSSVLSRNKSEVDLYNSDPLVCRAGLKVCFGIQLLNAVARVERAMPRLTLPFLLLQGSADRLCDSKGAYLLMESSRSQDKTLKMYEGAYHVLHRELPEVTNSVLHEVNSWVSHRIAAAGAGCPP
MEASUREMENT_NOTES: In vitro competitive ABPP, % inhibition at fixed concentration, MAGL
Format: biochemical
Set-up: from tissue
inhibition at 10 µM reference

Observe how each entry below is paired with its result.
[[record]]
compound = "O=C(ON1C(=O)CCC1=O)N1CCC(N2CCCCC2=O)CC1 [Example 220]"
measurement = "< 25%"

[[record]]
compound = "O=C(ON1C(=O)CCC1=O)N1CCC(N2CCCC2=O)CC1 [Example 219]"
measurement = "< 25%"


## Input Quote inhibition at 10 µM reported for O=C(CN1CCCC1)N1CCN(C(=O)ON2C(=O)CCC2=O)CC1 [Example 214] please.
## Output < 25%

## Input Provide only the value of recorded inhibition at 10 µM for O=C(ON1C(=O)CCC1=O)N1CCN(C(c2ccc3c(c2)OC(F)(F)O3)c2ccc3c(c2)OC(F)(F)O3)CC1 [Example 150]
## Output > 75%

###

In this section we review reported IC50 values for a set of compounds.
SYSTEM_NAME: FAAH (Mus musculus, UniProt O08914)
Sequence (O08914 whole entry): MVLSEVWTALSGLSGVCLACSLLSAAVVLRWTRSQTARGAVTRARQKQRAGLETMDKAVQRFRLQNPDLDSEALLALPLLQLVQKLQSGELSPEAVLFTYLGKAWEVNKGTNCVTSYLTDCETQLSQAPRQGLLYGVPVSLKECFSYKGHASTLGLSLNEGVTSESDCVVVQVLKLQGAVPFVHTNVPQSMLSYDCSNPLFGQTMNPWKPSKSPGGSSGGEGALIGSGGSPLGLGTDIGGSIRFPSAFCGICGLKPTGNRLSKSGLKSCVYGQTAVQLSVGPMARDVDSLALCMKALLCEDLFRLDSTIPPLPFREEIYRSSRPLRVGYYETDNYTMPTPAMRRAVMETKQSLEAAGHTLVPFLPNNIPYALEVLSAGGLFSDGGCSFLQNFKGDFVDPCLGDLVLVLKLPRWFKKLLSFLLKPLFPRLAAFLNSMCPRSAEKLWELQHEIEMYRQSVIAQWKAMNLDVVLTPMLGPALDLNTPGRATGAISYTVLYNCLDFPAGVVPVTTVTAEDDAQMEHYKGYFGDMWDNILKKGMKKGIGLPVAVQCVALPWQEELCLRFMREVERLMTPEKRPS
MEASUREMENT_NOTES: In vitro competitive activity-based protein profiling (FP-Rh), mouse FAAH
Format: biochemical
Parameters: from tissue; host or cells: mouse brain membrane fraction
REPORTED_CONDITIONS: Table 1, mouse proteome, 30 min preincubation at 37° C.

[[record]]
compound = "O=C(ON1C(=O)c2ccccc2C1=O)N1CCN(C(c2ccc(Cl)cc2)c2ccc(Cl)cc2)CC1"
measurement = "> 10000 nM"

[[record]]
compound = "O=C(ON1C(=O)CCC1=O)N1CCC(Cc2ccccc2)CC1"
measurement = "1000 to 10000 nM"


## Input Item CN(C)C(=O)ON1C(=O)CCC1=O : provide IC50
## Output > 10000 nM

## Input Name the recorded IC50 of the item O=C1CCC(=O)N1OC(=O)N1CCCCC1CCc1ccccc1 (stereo not shown) in your answer.
## Output > 10000 nM

This collection of values is drawn from patent US9567302B2.
